Cited source for all entries: patent US8048879B2

Reported inhibition at 10 µM by item:
molecular target: 5-HT transporter (Rattus norvegicus, UniProt P31652); construct: from tissue; host or cells: rat brain (medulla and pons), synaptosomes, P2 fraction; assay: 5-HT uptake inhibition, synaptosomes from rat brain (medulla and pons); type: biochemical
Sequence (P31652 whole entry): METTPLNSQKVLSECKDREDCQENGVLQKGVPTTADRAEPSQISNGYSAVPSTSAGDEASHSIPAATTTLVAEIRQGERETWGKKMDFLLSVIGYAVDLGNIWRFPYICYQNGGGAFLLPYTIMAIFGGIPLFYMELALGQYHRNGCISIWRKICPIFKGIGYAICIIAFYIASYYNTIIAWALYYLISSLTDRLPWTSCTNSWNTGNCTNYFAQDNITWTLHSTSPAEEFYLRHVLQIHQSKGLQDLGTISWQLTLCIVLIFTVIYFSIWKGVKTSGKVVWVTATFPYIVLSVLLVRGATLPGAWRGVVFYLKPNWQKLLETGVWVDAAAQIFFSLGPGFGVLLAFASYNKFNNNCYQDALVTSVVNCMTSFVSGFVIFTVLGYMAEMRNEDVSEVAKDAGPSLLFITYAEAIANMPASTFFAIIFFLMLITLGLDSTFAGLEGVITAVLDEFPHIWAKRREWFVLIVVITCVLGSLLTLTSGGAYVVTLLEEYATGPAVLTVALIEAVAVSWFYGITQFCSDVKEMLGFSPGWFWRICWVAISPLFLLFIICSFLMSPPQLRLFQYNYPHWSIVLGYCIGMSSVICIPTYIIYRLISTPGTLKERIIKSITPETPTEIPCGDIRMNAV

molecule: CN(C)CCNC(=O)c1noc2c1CN(C(=O)C=Cc1ccccc1)CC2
inhibition at 10 µM / %: 72

molecule: O=C(NCCN1CCCC1)c1noc2c1CN(C(=O)c1ccc(Cl)nc1)CC2
inhibition at 10 µM / %: 62

molecule: C=CCCC(=O)N1CCc2onc(C(=O)NCC3CC3)c2C1
inhibition at 10 µM / %: 62

molecule: O=C(c1noc2c1CN(S(=O)(=O)c1cccc(C(F)(F)F)c1)CC2)N(CCc1ccccc1)Cc1ccccc1
inhibition at 10 µM / %: 63

molecule: CCOC(=O)CCNC(=O)c1noc2c1CN(C(=O)c1ccc(OC)cc1)CC2
inhibition at 10 µM / %: 75

molecule: COC(=O)CCCC(=O)N1CCc2onc(C(=O)NCc3ccc(F)cc3)c2C1
inhibition at 10 µM / %: 70

molecule: O=C(NCC1CC1)c1noc2c1CN(C(=S)NCc1ccc(Cl)cc1)CC2
inhibition at 10 µM / %: 75

molecule: Cc1ccc(S(=O)(=O)N2CCc3onc(C(=O)NC4CCN(Cc5c(Cl)cccc5Cl)C4)c3C2)cc1 (centres unmarked)
inhibition at 10 µM / %: 67

molecule: COc1ccc(S(=O)(=O)N2CCc3onc(C(=O)NCc4cccc(OC)c4OC)c3C2)cc1
inhibition at 10 µM / %: 68

molecule: O=C(NCc1ccc(C(F)(F)F)c(F)c1)c1noc2c1CN(S(=O)(=O)c1ccccc1)CC2
inhibition at 10 µM / %: 83

molecule: O=C(NCc1ccc(F)cc1)c1noc2c1CN(C(=O)c1ccc3ncccc3c1)CC2
inhibition at 10 µM / %: 65

molecule: O=C(c1noc2c1CN(S(=O)(=O)c1ccc3ccccc3c1)CC2)N1CCC(CCN2CCCC2)CC1
inhibition at 10 µM / %: 67

molecule: CN(C)S(=O)(=O)N1CCc2onc(C(=O)NCCc3ccc(Cl)cc3)c2C1
inhibition at 10 µM / %: 63

molecule: CCOC(=O)C(C)NC(=O)c1noc2c1CN(S(=O)(=O)c1cccs1)CC2 (centres unmarked)
inhibition at 10 µM / %: 67
